molecular target: MCH-1R (Homo sapiens, UniProt Q99705); assay: Aequorin bioluminescence functional assay, 293AEQ17/MCH-1R cells; format: cell-based; design: expressed in transfected cells; conditions: human MCH = 100; activation at 10 μM concentration
Sequence (Q99705 whole entry): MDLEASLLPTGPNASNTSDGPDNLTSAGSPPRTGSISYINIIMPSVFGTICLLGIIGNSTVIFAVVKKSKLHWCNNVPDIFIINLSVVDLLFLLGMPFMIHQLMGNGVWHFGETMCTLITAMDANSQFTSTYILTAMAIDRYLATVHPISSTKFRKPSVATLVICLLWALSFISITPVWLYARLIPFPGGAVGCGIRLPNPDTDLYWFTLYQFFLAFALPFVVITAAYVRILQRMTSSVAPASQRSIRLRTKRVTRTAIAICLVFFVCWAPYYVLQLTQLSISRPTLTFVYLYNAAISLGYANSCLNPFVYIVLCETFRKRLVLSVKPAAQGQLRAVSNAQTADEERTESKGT
Residues, ends and D or L forms follow the SMILES beside them.
Items are presented alongside their recorded MCH-1R Activation %.
Kindly answer with a numeric value in %, unit omitted.

Query: Dear colleague, I am looking for the recorded MCH-1R Activation % of the following molecule: CSCC[C@@H]1NC(=O)[C@@H](NC(=O)[C@H](CCCNC(=N)N)NC(C)=O)CSSC[C@@H](C(N)=O)NC(=O)[C@@H]2CCCN2C(=O)[C@H](CCCNC(=N)N)NC(=O)[C@H](Cc2ccc(O)cc2)NC(=O)[C@H](C(C)C)NC(=O)[C@H](CCCNC(=N)N)NC(=O)CNC(=O)[C@H](CC(C)C)NC1=O [SEQ. ID. NO. 2, Ac-hMCH(6-16)-NH2, reference compound]
Reply: 99

Query: Look up MCH-1R Activation %: CSCC[C@@H]1NC(=O)[C@@H](NC(=O)[C@H](CCCNC(=N)N)NC(C)=O)CSSC[C@@H](C(N)=O)NC(=O)[C@@H]2CCCN2C(=O)[C@H](CCCNC(=N)N)NC(=O)[C@H](Cc2ccc(O)cc2)NC(=O)[C@H](C(C)C)NC(=O)[C@H](CCCNC(=N)N)NC(=O)[C@H](CC(C)C)NC(=O)[C@H](CC(C)C)NC1=O [SEQ. ID. NO. 17]
Reply: 123

Query: Please look up its MCH-1R Activation %: CSCC[C@@H]1NC(=O)[C@@H](NC(=O)[C@H](CCCNC(=N)N)NC(C)=O)CSSC[C@@H](C(N)=O)NC(=O)[C@@H]2CCCN2C(=O)[C@H](CCCNC(=N)N)NC(=O)[C@H](Cc2ccc(O)cc2)NC(=O)[C@H](C(C)C)NC(=O)[C@H](CCCNC(=N)N)NC(=O)[C@H](Cc2ccccc2)NC(=O)[C@H](CC(C)C)NC1=O [SEQ. ID. NO. 20] (HELM PEPTIDE1{[ac].R.C.M.L.F.R.V.Y.R.P.C.[am]}$PEPTIDE1,PEPTIDE1,3:R3-12:R3$$$V2.0)
Reply: 75

Query: # lookup: MCH-1R Activation % of CSCC[C@@H]1NC(=O)[C@@H](NC(=O)[C@@H](C)NC(C)=O)CSSC[C@@H](C(N)=O)NC(=O)[C@@H]2CCCN2C(=O)[C@H](CCCNC(=N)N)NC(=O)[C@H](Cc2ccc(O)cc2)NC(=O)[C@H](C(C)C)NC(=O)[C@H](CCCNC(=N)N)NC(=O)CNC(=O)[C@H](CC(C)C)NC1=O [SEQ. ID. NO. 6]
Reply: 109

Query: What does the data say about its MCH-1R Activation %? Entry: CSCC[C@@H]1NC(=O)[C@@H](NC(=O)[C@H](CCCNC(=N)N)NC(C)=O)CSSC[C@@H](C(N)=O)NC(=O)[C@@H]2CCCN2C(=O)[C@H](CCCNC(=N)N)NC(=O)[C@H](Cc2ccc(O)cc2)NC(=O)[C@H](C(C)C)NC(=O)[C@H](CCCNC(=N)N)NC(=O)[C@H](C)NC(=O)[C@H](CC(C)C)NC1=O [SEQ. ID. NO. 16] (HELM PEPTIDE1{[ac].R.C.M.L.A.R.V.Y.R.P.C.[am]}$PEPTIDE1,PEPTIDE1,3:R3-12:R3$$$V2.0)
Reply: 121

Query: Tell me the measured MCH-1R Activation % of CSCC[C@@H]1NC(=O)CCSSC[C@@H](C(N)=O)NC(=O)[C@@H]2CCCN2C(=O)[C@H](CCCNC(=N)N)NC(=O)[C@H](Cc2ccc(O)cc2)NC(=O)[C@H](C(C)C)NC(=O)[C@H](CCCNC(=N)N)NC(=O)CNC(=O)[C@H](CC(C)C)NC1=O [SEQ. ID. NO. 15] , please.
Reply: 92

Query: Endpoint output: MCH-1R Activation % of CSCC[C@@H]1NC(=O)[C@@H](NC(=O)[C@H](CCCNC(=N)N)NC(C)=O)CSSC[C@@H](C(N)=O)NC(=O)[C@@H]2CCCN2C(=O)[C@H](CCCNC(=N)N)NC(=O)[C@H](Cc2ccc(O)cc2)NC(=O)[C@H](C(C)C)NC(=O)[C@H](CCCNC(=N)N)NC(=O)[C@H](CC2CCCCC2)NC(=O)[C@H](CC(C)C)NC1=O [SEQ. ID. NO. 19] . Value?
Reply: 76

Query: Which MCH-1R Activation % reading was recorded for the molecule CSCC[C@@H]1NC(=O)[C@@H](NC(=O)[C@H](CCCNC(=N)N)NC(C)=O)CSSC[C@@H](C(N)=O)NC(=O)[C@@H]2CCCN2C(=O)[C@H](CCCNC(=N)N)NC(=O)[C@H](Cc2ccc(O)cc2)NC(=O)[C@H](C(C)C)NC(=O)[C@H](CCCNC(=N)N)NC(=O)[C@H](CCC(=O)O)NC(=O)[C@H](CC(C)C)NC1=O [SEQ. ID. NO. 28] ?
Reply: 21

Query: Return reported MCH-1R Activation %; argument: CSCC[C@@H]1NC(=O)[C@@H](NC(=O)[C@H](CCCNC(=N)N)NC(C)=O)CSSC[C@@H](C(N)=O)NC(=O)[C@@H]2CCCN2C(=O)[C@H](CCCNC(=N)N)NC(=O)[C@H](Cc2ccc(O)cc2)NC(=O)[C@H](C(C)C)NC(=O)[C@H](CCCNC(=N)N)NC(=O)[C@H](CCCNC(N)=O)NC(=O)[C@H](CC(C)C)NC1=O [SEQ. ID. NO. 27]
Reply: 91

Query: Sample CSCC[C@@H]1NC(=O)[C@@H](NC(=O)[C@H](CCCNC(=N)N)NC(C)=O)CSSC[C@@H](C(N)=O)NC(=O)[C@@H]2CCCN2C(=O)[C@H](CCCNC(=N)N)NC(=O)[C@H](Cc2ccc(O)cc2)NC(=O)[C@H](C(C)C)NC(=O)[C@H](CCCNC(=N)N)NC(=O)[C@H](CCCCN)NC(=O)[C@H](CC(C)C)NC1=O [SEQ. ID. NO. 24] — what was its MCH-1R Activation %?
Reply: 43

Query: Name the reported MCH-1R Activation % value associated with the molecule CSCC[C@@H]1NC(=O)[C@@H](NC(=O)[C@H](CCCNC(=N)N)NC(C)=O)CSSC[C@@H](C(N)=O)NC(=O)[C@@H]2CCCN2C(=O)[C@H](CCCNC(=N)N)NC(=O)[C@H](Cc2ccc(O)cc2)NC(=O)[C@H](C(C)C)NC(=O)[C@H](CCCNC(=N)N)NC(=O)[C@H](CO)NC(=O)[C@H](CC(C)C)NC1=O [SEQ. ID. NO. 26] (HELM PEPTIDE1{[ac].R.C.M.L.S.R.V.Y.R.P.C.[am]}$PEPTIDE1,PEPTIDE1,3:R3-12:R3$$$V2.0)
Reply: 120
